Target: HiBit-BRG1 fusion protein (Homo sapiens, UniProt P51532)
Construct: expressed in transfected cells
Sequence (P51532 whole entry, the tested form may be a part): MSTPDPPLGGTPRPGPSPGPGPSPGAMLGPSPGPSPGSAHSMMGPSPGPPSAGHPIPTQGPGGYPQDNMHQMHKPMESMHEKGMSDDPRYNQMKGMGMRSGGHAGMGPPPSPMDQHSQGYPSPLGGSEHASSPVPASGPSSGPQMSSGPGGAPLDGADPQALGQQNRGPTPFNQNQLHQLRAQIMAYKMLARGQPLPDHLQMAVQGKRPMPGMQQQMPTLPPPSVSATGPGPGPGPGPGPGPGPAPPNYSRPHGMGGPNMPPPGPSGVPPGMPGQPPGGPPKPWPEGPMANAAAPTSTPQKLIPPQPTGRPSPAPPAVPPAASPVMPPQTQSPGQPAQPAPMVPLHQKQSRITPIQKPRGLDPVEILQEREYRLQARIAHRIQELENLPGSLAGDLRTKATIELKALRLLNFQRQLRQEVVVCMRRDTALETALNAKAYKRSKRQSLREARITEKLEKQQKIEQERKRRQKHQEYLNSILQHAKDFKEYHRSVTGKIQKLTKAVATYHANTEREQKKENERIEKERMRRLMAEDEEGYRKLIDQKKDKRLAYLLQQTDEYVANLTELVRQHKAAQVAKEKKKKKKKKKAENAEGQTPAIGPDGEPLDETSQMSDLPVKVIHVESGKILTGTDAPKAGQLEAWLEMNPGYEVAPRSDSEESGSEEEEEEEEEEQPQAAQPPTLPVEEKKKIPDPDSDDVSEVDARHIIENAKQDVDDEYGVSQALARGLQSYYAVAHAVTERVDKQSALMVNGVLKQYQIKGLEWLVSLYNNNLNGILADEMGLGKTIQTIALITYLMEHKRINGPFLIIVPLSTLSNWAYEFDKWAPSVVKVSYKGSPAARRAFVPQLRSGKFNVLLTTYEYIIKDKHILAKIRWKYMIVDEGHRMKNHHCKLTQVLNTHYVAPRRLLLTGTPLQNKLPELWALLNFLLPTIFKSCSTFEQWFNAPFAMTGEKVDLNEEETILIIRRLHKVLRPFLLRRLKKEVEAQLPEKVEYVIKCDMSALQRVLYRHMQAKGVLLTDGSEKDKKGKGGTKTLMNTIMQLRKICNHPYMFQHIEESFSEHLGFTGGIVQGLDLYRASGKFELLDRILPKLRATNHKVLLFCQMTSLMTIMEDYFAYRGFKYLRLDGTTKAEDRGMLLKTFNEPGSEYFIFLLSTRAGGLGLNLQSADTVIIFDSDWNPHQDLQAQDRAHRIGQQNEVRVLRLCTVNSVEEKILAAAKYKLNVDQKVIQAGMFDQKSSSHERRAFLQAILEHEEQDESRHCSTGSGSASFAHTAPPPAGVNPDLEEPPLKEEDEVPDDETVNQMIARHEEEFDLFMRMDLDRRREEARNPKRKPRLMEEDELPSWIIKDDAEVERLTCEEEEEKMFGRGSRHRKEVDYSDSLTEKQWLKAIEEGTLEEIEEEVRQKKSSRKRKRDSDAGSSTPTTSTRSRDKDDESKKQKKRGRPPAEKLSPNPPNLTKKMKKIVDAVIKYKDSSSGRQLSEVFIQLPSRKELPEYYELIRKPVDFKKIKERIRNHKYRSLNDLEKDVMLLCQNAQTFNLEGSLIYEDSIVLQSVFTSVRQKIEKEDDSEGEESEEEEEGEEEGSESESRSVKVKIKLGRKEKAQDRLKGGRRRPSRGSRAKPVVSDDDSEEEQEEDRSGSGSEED
Assay: HiBiT-BRG1 cell-based degradation assay (Nano-Glo HiBiT Lytic Detection, 24 h)
Conditions: HeLa cell line expressing HiBit-BRG1 and LgBit, read-out: BRG1 HiBit Degradation Maximum (%)
Procedure: Procedure: A stable HeLa cell line expressing HiBiT-BRM was generated. On day 0, 5000 cells were seeded in 40 μL of media into each well of 384-well cell culture plates. […] The plates were shaken for 10 minutes at room temperature and the bioluminescence read using an EnVision plate reader (PerkinElmer). […] The degradation % was calculated using the following formula: % degradation=100%−100%×(LumSample−LumLC)/(LumHC−LumLC). […]
Would you kindly list Dmax for each of these compounds?

Lab note: each compound below needs its Dmax filled in.
1. Cc1ncsc1-c1ccc(CNC(=O)[C@@H]2C[C@@H](O)CN2C(=O)[C@@H](NC(=O)CCCCCCCCC(=O)N2CC(c3cc4cc(-c5ccccc5O)nnc4[nH]3)C2)C(C)(C)C)cc1 [Compound 2]
2. Cc1ncsc1-c1ccc([C@H](C)NC(=O)[C@@H]2C[C@@H](O)CN2C(=O)[C@@H](c2cc(OCCN3CC(c4cn(C(F)F)c5nnc(-c6ccccc6O)cc45)C3)no2)C(C)C)cc1 [Compound 116]
3. Cc1ncsc1-c1ccc([C@H](C)NC(=O)[C@@H]2C[C@@H](O)CN2C(=O)[C@@H](c2cc(OCCN3CCC(F)(c4cc5cc(-c6ccccc6O)nnc5[nH]4)CC3)no2)C(C)C)cc1 (racemic) [Compound 285]
4. Cc1ncsc1-c1ccc([C@H](C)NC(=O)[C@@H]2C[C@@H](O)CN2C(=O)[C@@H](NC(=O)CCCCCCCCCCCCCC(=O)N2CC(c3cc4cc(-c5ccccc5O)nnc4[nH]3)C2)C(C)(C)C)cc1 [Compound 11]
5. Cc1ncsc1-c1ccc([C@H](C)NC(=O)[C@@H]2C[C@@H](O)CN2C(=O)[C@@H](c2cc(OCCCN3CC(c4cc5cc(-c6ccccc6O)nnc5[nH]4)C3)no2)C(C)C)cc1 (single isomer, unassigned) [Compound 237]

Result:
1. < 50%
2. < 50%
3. > 50%
4. < 50%
5. < 50%
